Target: Somatostatin receptor type 5 (Homo sapiens, UniProt P35346)
Sequence (P35346 whole entry): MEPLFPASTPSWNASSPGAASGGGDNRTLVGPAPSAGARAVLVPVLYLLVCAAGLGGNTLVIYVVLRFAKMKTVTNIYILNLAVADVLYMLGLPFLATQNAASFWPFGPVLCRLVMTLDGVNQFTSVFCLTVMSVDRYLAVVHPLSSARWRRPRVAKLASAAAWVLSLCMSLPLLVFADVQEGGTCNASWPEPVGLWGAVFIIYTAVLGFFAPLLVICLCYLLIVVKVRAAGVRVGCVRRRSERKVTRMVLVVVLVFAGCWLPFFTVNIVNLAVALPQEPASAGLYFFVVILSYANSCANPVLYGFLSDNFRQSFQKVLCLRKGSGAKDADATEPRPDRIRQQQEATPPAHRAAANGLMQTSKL
Assay: Inhibition of radiolabeled somatostatin-14 binding to human recombinant SSTR5
Conditions: read-out: Ki
MEASURED QUANTITY: Ki (µM)
# output: bare number, implied unit µM

// Ki lookup, key: NCCCCC[C@@H]1[C@@H](OCc2ccccc2)[C@H](OCc2ccccc2)[C@@H](OCc2ccccc2)CN1Cc1ccc2ccccc2c1
2

What Ki value was documented for this compound, CC(=O)O[C@H]1[C@H](OC(C)=O)[C@@H](CCCCCN)N(Cc2ccc3ccccc3c2)C[C@@H]1OC(C)=O ?
7.7

Fill in: Ki of NCCCCC[C@@H]1[C@@H](O)[C@H](O)[C@@H](O)CN1Cc1ccc2ccccc2c1 is ___
34

---

Target: Somatostatin receptor type 4 (Homo sapiens)
Sequence (P31391 whole entry): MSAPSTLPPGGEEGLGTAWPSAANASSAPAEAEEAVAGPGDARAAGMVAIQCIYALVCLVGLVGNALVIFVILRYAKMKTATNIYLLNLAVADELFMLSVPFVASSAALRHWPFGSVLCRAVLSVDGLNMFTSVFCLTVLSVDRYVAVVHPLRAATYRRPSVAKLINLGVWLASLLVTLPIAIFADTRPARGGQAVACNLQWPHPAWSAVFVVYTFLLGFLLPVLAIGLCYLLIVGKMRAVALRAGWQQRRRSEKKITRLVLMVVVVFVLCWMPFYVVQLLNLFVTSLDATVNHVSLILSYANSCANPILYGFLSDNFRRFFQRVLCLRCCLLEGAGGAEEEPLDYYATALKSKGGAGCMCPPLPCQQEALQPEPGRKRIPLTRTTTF
Assay: Inhibition of radiolabeled somatostatin-14 binding to human recombinant SSTR4
Conditions: read-out: Ki
For each of the molecules below, state its Ki.
Please give a number only; it is taken to be in µM.

For the molecule shown here, NCCCCC[C@@H]1[C@@H](OCc2ccccc2)[C@H](OCc2ccccc2)[C@@H](OCc2ccccc2)CN1Cc1ccc2ccccc2c1 , give the reported Ki.
1.9

For NCCCCCOC[C@@H]1[C@@H](O)[C@H](O)[C@@H](O)CN1CCc1c[nH]c2ccccc12 , what is its reported Ki?
3.2

What does the record list as Ki for CC(=O)O[C@H]1[C@H](OC(C)=O)[C@@H](CCCCCN)N(Cc2ccc3ccccc3c2)C[C@@H]1OC(C)=O ?
5.4
